These entries and their values trace back to ChEMBL document CHEMBL1961873.

- TARGET SYSTEM: Non-receptor tyrosine-protein kinase TNK1 (Homo sapiens) (UniProt Q13470);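 further: values are averaged percent inhibition of TNK1, compounds from the GSK published kinase inhibitor set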
- Sequence (Q13470 whole entry): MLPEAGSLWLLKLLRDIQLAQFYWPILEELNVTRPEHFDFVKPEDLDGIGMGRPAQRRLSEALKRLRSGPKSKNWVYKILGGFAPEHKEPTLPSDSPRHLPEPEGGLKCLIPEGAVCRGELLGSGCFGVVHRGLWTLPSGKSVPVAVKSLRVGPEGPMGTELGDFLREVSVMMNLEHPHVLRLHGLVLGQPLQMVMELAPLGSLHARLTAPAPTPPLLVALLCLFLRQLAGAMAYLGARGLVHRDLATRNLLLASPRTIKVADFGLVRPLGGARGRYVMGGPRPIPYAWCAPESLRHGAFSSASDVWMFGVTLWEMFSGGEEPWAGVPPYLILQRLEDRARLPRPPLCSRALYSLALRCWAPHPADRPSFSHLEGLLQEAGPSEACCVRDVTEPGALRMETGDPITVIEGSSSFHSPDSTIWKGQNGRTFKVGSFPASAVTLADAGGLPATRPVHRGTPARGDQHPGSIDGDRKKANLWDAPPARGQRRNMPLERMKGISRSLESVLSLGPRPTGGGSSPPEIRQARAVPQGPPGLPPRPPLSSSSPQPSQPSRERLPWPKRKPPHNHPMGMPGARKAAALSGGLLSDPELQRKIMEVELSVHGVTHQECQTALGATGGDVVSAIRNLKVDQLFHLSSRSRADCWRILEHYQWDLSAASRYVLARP
- CONDITION DETAILS: at 1 µM
Recorded inhibition by entry

# COMPOUND STRING, inhibition (%)
measured = [
    ("NS(=O)(=O)c1ccc(N/N=C2\\C(=O)Nc3ccc(Cl)cc32)cc1", 20.5),
    ("Nc1nccc(-c2c(-c3ccc(F)cc3)nn3cc(C(F)(F)F)ccc23)n1", -0.22),
    ("Cc1cc(O)cc(C)c1/C=C/c1cncc(C(=O)N(C)C)c1", 1.79),
    ("Cc1cc(Cl)cc2c1NC(=O)C2=NNc1ccc(S(N)(=O)=O)cc1", 7.55),
    ("COC(=O)Nc1nc2cc(Oc3ccc(NC(=O)Nc4cccc(Br)c4)cc3)ccc2[nH]1", 8.8),
]

---

Recorded inhibition by entry
- TARGET SYSTEM: Protein kinase C beta type (Homo sapiens);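 further: PKC-beta1 splice variant of the enzyme, figure reported as mean inhibition, measured within the GSK PKIS kinase profiling panel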
- CONDITION DETAILS: at 0.1 µM
- Description: GSK_PKIS: PKC-beta1 (splice variant) mean inhibition at 0.1 uM [Nanosyn]

# COMPOUND, inhibition, %
data = [
    ("Cc1cc(O)cc(C)c1/C=C/c1cncc(C(=O)N(C)C)c1", 0.67),
    ("CCn1c(-c2nonc2N)nc2c(C#CC(C)(C)O)nc(OCCNC)cc21", 4.85),
    ("Cc1nc(-c2ccccc2)n2nc(NCCCN3CCOCC3)ncc12", -0.19),
    ("COc1cccc(-n2nc(C)c3c(N/N=C(\\C)c4ccncc4)ncnc32)c1", 0.03),
    ("Cc1ccc(O)cc1Nc1ccnc2ccc(S(C)(=O)=O)cc12", 1.93),
    ("CN(C)C(=O)O[C@@H]1CN[C@@H](C#Cc2cc3ncnc(Nc4ccc(OCc5cccc(F)c5)c(Cl)c4)c3s2)C1", -1.27),
    ("COC(=O)Nc1nc2cc(Oc3ccc(NC(=O)Nc4cccc(Br)c4)cc3)ccc2[nH]1", -0.97),
    ("[O-][S+]1CCN(Cc2ccc(-c3ccc4ncnc(Nc5ccc(OCc6ccccc6)c(Cl)c5)c4c3)o2)CC1", 0.56),
    ("NC(=O)c1cccc(Nc2nccc(Nc3cccc(F)c3)n2)c1", -2.22),
    ("Cc1ccc2c(c1)/C(=N/Nc1ccc(S(N)(=O)=O)cc1)C(=O)N2", -0.92),
    ("O=S(=O)(CCOCc1ccc(-c2ccc3ncnc(Nc4ccc(OCc5cccc(F)c5)c(Cl)c4)c3c2)o1)c1ccccc1", -0.21),
    ("COC(=O)c1ccc2c(c1)C(=Cc1cc(Br)c(O)c(Br)c1)C(=O)N2", -0.23),
    ("C[C@@H](Oc1cc(-n2cnc3ccc(OC[C@@H](O)CO)cc32)sc1C(N)=O)c1ccccc1Cl", -0.38),
    ("CC(C)c1ccc2c(c1)NC(=O)/C2=N/Nc1ccc(S(N)(=O)=O)cc1", -0.04),
    ("COc1cc2ncn(-c3cc(OCc4ccccc4S(C)(=O)=O)c(C#N)s3)c2cc1OC", 2.71),
    ("CCS(=O)(=O)c1ccc(OC)c(Nc2nccc(N(C)c3ccc4c(C)n[nH]c4c3)n2)c1", 0.4),
    ("CCCN1CCCC(c2ccc(Nc3nc(Nc4cc(F)ccc4C(N)=O)c4cc[nH]c4n3)c(OC)c2)C1 (stereo not given)", -0.31),
    ("O=C1Nc2ccc(-c3cccnc3)cc2C1=Cc1cc(Br)c(O)c(Br)c1", 0.24),
    ("NS(=O)(=O)c1ccc(-c2cc3ccncc3cc2OCc2ccccc2)cc1", 0.43),
    ("C[C@@H](Oc1cc(-n2cnc3ccc(OCC4CCN(C)CC4)cc32)sc1C(N)=O)c1ccccc1C(F)(F)F", 0.2),
    ("CCS(=O)(=O)c1ccc(OC)c(Nc2ncc(-c3cccc(OC)c3)o2)c1", 0.07),
    ("NS(=O)(=O)c1cccc(Nc2cc(-c3ccc(F)cc3)n[nH]2)c1", 2.83),
    ("c1ccc(Cc2nc3ccc(Nc4ncnc5ccccc45)cc3[nH]2)cc1", 1.26),
    ("Nc1nccc(-c2c(-c3ccc(F)cc3)nn3cc(C(F)(F)F)ccc23)n1", -1.02),
    ("NS(=O)(=O)c1cccc(-c2cc3ccncc3cc2OCc2ccccc2)c1", -0.33),
    ("Cc1ccc(C(=O)NC2CC2)cc1-c1ccc2[nH]ncc2c1", -0.41),
    ("COc1cccc(-n2ncc3c(N/N=C/c4ccc(S(C)(=O)=O)cc4)ncnc32)c1", 2.22),
    ("CCOc1nccc2c1nc(-c1nonc1N)n2CC", 11.6),
    ("Cc1cc(-c2ccccn2)cc(C)c1/C=C/c1cncc(-c2nn[nH]n2)c1", 0.54),
    ("O=C(Nc1ccc(Oc2ccc3[nH]c(NC(=O)c4ccco4)nc3c2)cc1)Nc1cc(C(F)(F)F)ccc1F", -0.09),
    ("Cc1ccc2c(-c3ccnc(Nc4cccc(C(F)(F)F)c4)n3)c(-c3ccccc3)nn2n1", 0.54),
    ("NS(=O)(=O)c1ccc(N/N=C2\\C(=O)Nc3ccc(Cl)cc32)cc1", 1.35),
    ("NS(=O)(=O)c1ccc(NC=C2C(=O)Nc3ccc4ncsc4c32)cc1", 0.12),
    ("COc1cc2ncnc(Nc3ccc4c(cnn4Cc4ccccc4)c3)c2cc1OC", 0.81),
    ("COc1ccc(-c2nn3ncccc3c2-c2ccnc(Nc3cccc(C(F)(F)F)c3)n2)cc1", 1.46),
    ("NC(=O)c1sc(-n2cnc3ccccc32)cc1OCc1ccccc1Br", -0.55),
    ("COc1ccc2ncnc(Nc3ccc(OCc4ccccc4)cc3)c2c1", 0.57),
    ("CN1CCN(C(=O)c2ccc(NC(=O)Nc3ccc(N(C)c4ccnc(Nc5ccc(CS(C)(=O)=O)cc5)n4)cc3)cc2)CC1", 0.01),
    ("COc1cccc(-n2ncc3c(N/N=C/c4ccc(C)cc4)ncnc32)c1", 0.67),
    ("N#Cc1c(NC(=O)c2ccccc2F)sc2c1CCCC2", 0.38),
]

---

Recorded inhibition by entry
- TARGET SYSTEM: MAP kinase-interacting serine/threonine-protein kinase 1 (Homo sapiens);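 further: each value is an averaged percent inhibition of MKNK1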
- CONDITION DETAILS: at 1 µM

# COMPOUND, UNIT NAME, inhibition
measured = [
    ("Cc1ccc(Nc2ccnc(Nc3cccc(C(N)=O)c3)n2)cc1O", "%", 13.4),
    ("Nc1nccc(C#Cc2cncnc2Nc2ccc(OCc3cccc(F)c3)c(Cl)c2)n1", "%", 14),
    ("CN(c1ccc(NC(=O)Nc2ccc(OC(F)(F)F)cc2)cc1)c1ccnc(Nc2cccc(S(N)(=O)=O)c2)n1", "%", 73.3),
    ("CCn1c(-c2nonc2N)nc2ccc(F)cc21", "%", 9.46),
    ("Nc1nccc(-c2c(-c3ccc(F)cc3)nn3cc(C(F)(F)F)ccc23)n1", "%", 3.98),
    ("COc1ccc2ncnc(Nc3ccc(OCc4ccccc4)cc3)c2c1", "%", 7.43),
    ("CN(C)C(=O)O[C@H]1CN[C@H](C#Cc2cc3ncnc(Nc4ccc(OCc5cccc(F)c5)c(Cl)c4)c3s2)C1", "%", 6.43),
    ("FC(F)(F)c1ccc(-c2nn3ncccc3c2-c2ccnc(Nc3ccc4c(c3)OCCO4)n2)cc1", "%", 10.9),
    ("CS(=O)(=O)CCNCc1nc(-c2ccc3ncnc(Nc4ccc(OCc5cccc(C(F)(F)F)c5)cc4)c3c2)cs1", "%", 7.54),
    ("CCS(=O)(=O)c1ccc(OC)c(Nc2ncc(-c3cccc(OC)c3)o2)c1", "%", 17),
    ("CCn1c(-c2nonc2N)nc2c(C#CC(C)(C)O)nc(OCCNC)cc21", "%", 3.44),
    ("NS(=O)(=O)c1ccc(Nc2cc(-c3cccc(O)c3)n[nH]2)cc1", "%", 7.14),
    ("Cc1ccc(O)cc1Nc1ccnc2ccc(S(C)(=O)=O)cc12", "%", 12.2),
    ("COc1cccc(-n2ncc3c(N/N=C/c4ccc(C)cc4)ncnc32)c1", "%", 9.69),
    ("COc1cc2ncnc(Nc3ccc(C)c(O)c3)c2cc1OC", "%", 30.9),
    ("Cc1ccc(NC(=O)CC2CC2)cc1-c1ccc(C(=O)NCC2CC2)cc1", "%", 7.07),
    ("O=C1Nc2ccc(-c3cccnc3)cc2C1=Cc1cc(Br)c(O)c(Br)c1", "%", 12.7),
    ("CC(C)c1ccc2c(c1)NC(=O)/C2=N/Nc1ccc(S(N)(=O)=O)cc1", "%", 2.29),
    ("[O-][S+]1CCN(Cc2ccc(-c3ccc4ncnc(Nc5ccc(OCc6ccccc6)c(Cl)c5)c4c3)o2)CC1", "%", 5.98),
    ("CN(C)C(=O)O[C@@H]1CN[C@@H](C#Cc2cc3ncnc(Nc4ccc(OCc5cccc(F)c5)c(Cl)c4)c3s2)C1", "%", 3.62),
    ("ON=C1CCc2cc(-c3nc(C4CCNCC4)[nH]c3-c3ccncc3)ccc21", "%", 3.6),
    ("N#Cc1c(NC(=O)c2ccccc2F)sc2c1CCCC2", "%", -0.18),
    ("CCS(=O)(=O)c1ccc(OC)c(Nc2nccc(N(C)c3ccc4c(C)n[nH]c4c3)n2)c1", "%", 3.58),
    ("CS(=O)(=O)Nc1cccc(-c2ccc3c(NC(=O)C4CC4)n[nH]c3c2)c1", "%", 13.5),
    ("CC(C)c1ccc(Nc2nccc(-c3cnn4ncccc34)n2)cc1", "%", 11.8),
    ("COc1cc2ncnc(Nc3ccc4c(cnn4Cc4ccccc4)c3)c2cc1OC", "%", 18),
    ("COC(=O)c1ccc2c(c1)C(=Cc1cc(Br)c(O)c(Br)c1)C(=O)N2", "%", 5.73),
    ("N#Cc1cccc(Nc2nccc(-c3cnn4ncccc34)n2)c1", "%", 22.5),
    ("COc1cccc(-n2ncc3c(N/N=C/c4ccc(S(C)(=O)=O)cc4)ncnc32)c1", "%", 34.2),
    ("Cc1nc(-c2ccccc2)n2nc(NCCCN3CCOCC3)ncc12", "%", 4.9),
    ("CN1CCN(C(=O)c2ccc(NC(=O)Nc3ccc(N(C)c4ccnc(Nc5ccc(CS(C)(=O)=O)cc5)n4)cc3)cc2)CC1", "%", 13.1),
    ("COc1ccc(-c2nn3ncccc3c2-c2ccnc(Nc3cccc(C(F)(F)F)c3)n2)cc1", "%", 3.34),
    ("NS(=O)(=O)c1cccc(Nc2cc(-c3ccc(F)cc3)n[nH]2)c1", "%", 10.7),
    ("CCCN1CCCC(c2ccc(Nc3nc(Nc4cc(F)ccc4C(N)=O)c4cc[nH]c4n3)c(OC)c2)C1 (stereo not drawn)", "%", 5.92),
    ("Cc1cc(O)cc(C)c1/C=C/c1cncc(C(=O)N(C)C)c1", "%", 18),
    ("O=C1Nc2ccccc2/C1=C/Nc1ccc2[nH]c(=O)[nH]c2c1", "%", 14),
    ("NS(=O)(=O)c1cccc(-c2cc3ccncc3cc2OCc2ccccc2)c1", "%", 6.7),
    ("COC(=O)c1cncc(/C=C/c2c(C)cc(O)cc2C)c1", "%", 25.6),
]
